Cited source: patent US11535627B2

# tested_system: Human LRS proteins (Homo sapiens)
# Construct: His
# Sequence (Q9P2J5 whole entry): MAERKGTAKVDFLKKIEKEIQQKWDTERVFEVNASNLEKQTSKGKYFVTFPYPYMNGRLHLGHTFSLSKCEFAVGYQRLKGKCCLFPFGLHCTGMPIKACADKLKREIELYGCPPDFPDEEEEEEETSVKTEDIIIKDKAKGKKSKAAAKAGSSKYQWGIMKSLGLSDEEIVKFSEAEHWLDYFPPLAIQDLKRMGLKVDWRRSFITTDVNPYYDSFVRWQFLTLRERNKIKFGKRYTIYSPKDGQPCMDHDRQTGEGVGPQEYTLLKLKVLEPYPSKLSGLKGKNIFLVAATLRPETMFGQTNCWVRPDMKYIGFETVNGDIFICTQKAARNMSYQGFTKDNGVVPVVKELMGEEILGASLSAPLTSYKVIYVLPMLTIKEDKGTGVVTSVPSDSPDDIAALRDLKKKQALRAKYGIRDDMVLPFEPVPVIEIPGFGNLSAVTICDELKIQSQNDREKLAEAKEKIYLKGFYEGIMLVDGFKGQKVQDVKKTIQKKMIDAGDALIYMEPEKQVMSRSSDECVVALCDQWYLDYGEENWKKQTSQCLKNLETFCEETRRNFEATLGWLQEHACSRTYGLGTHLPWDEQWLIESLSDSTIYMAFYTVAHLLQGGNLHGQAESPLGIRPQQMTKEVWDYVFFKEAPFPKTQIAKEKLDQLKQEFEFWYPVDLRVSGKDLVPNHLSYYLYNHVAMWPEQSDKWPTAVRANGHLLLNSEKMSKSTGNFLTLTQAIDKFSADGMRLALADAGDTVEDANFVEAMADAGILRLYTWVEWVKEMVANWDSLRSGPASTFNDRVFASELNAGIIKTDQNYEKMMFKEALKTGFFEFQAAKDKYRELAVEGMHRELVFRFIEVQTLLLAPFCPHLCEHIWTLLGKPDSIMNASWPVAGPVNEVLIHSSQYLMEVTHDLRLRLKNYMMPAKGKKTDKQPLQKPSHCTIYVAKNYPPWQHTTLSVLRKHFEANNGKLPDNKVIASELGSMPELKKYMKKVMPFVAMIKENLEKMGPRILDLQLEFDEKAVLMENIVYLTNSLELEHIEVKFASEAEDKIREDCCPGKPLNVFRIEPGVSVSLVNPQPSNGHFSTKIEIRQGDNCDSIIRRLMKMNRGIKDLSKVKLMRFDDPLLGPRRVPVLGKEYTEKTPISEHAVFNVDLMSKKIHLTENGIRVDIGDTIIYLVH
# assay_protocol: Surface plasmon resonance (SPR) binding to LRS
# Procedure: The dissociation […] constant (KD) toward His-LRS proteins was determined by using SPR instrument (Biacore T100) at the national center for inter-university research facilities (NCIRF) in Seoul National University. […] The dissociation constant (KD) was calculated by fitting to the 1:1 binding model.
pKd: −log10 of the molar value.
observable: pKd

Cc1cc(C)cc(CN2C[C@H]3CN3Cc3c(N(C)Cc4ccccc4)ncnc32)c1 (stereo partly shown) [Compound 21f]	5.35
